# testSystem: T1, recombinant human MASP1 active protease (amino acids 297-699, C-terminal His Tag) (human, UniProt P48740 297-699)
# T1 sequence: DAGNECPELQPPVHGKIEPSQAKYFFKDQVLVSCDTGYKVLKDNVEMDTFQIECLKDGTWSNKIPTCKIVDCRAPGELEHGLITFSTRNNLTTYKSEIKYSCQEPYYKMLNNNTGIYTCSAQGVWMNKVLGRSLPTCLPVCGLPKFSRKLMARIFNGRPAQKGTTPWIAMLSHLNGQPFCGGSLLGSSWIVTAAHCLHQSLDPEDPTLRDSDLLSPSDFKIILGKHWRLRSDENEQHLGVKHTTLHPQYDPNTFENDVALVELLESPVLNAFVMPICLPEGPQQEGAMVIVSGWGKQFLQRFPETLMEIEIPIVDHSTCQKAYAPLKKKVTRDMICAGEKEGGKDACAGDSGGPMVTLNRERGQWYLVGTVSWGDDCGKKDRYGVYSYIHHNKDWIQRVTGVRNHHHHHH
# assayExplanation: cell-based or functional assay
Bridge positions count the residues as written; N and C are the ends. Square brackets hold non-standard residues; d marks the D form. Ends that are not written are not given here. Oic = O=C(O)[C@@H]1C[C@@H]2CCCC[C@@H]2N1; Phe(2-Br) = N[C@@H](Cc1ccccc1Br)C(=O)O; NMeI = CC[C@H](C)[C@H](NC)C(=O)O; tBuAla = CC(C)(C)C[C@H](N)C(=O)O; Cit = NC(=O)NCCC[C@H](N)C(=O)O; Pen = CC(C)(S)[C@H](N)C(=O)O; NMeC = CN[C@@H](CS)C(=O)O; NMeA = CN[C@@H](C)C(=O)O; Sar = CNCC(=O)O
What human MASP1 IC50 was measured for each of the following?
The response must be a number in nM with no trailing unit.

Query :: Endpoint output: human MASP1 IC50 of PICSRS[tBuAla]PPI[Pen]IP-NH2 (disulfide 3-11; N-terminus assumed; SMILES CC[C@H](C)[C@H](NC(=O)[C@@H]1CCCN1)C(=O)N[C@H]1CSSC(C)(C)[C@@H](C(=O)N[C@H](C(=O)N2CCC[C@H]2C(N)=O)[C@@H](C)CC)NC(=O)[C@H]([C@@H](C)CC)NC(=O)[C@@H]2CCCN2C(=O)[C@@H]2CCCN2C(=O)[C@H](CC(C)(C)C)NC(=O)[C@H](CO)NC(=O)[C@H](CCCNC(=N)N)NC(=O)[C@H](CO)NC1=O) [(beta-P)-IC+SRS-((tBu)A)-PPI-(Pen)+IP-NH2] . Value?
Result :: 1.1

Query :: Endpoint output: human MASP1 IC50 of AICSRSLP[Oic]I[Pen]IPD-OH (disulfide 3-11) [AIC+SRSLP-(Oic)-I-(Pen)+IPD-OH (salt free form)] . Value?
Result :: 0.96

Query :: Endpoint output: human MASP1 IC50 of [NMeA]ICSRS[tBuAla]P[Oic]I[Pen]IP-NH2 (disulfide 3-11; N-terminus assumed; SMILES CC[C@H](C)[C@H](NC(=O)[C@H](C)NC)C(=O)N[C@H]1CSSC(C)(C)[C@@H](C(=O)N[C@H](C(=O)N2CCC[C@H]2C(N)=O)[C@@H](C)CC)NC(=O)[C@H]([C@@H](C)CC)NC(=O)[C@@H]2C[C@@H]3CCCC[C@@H]3N2C(=O)[C@@H]2CCCN2C(=O)[C@H](CC(C)(C)C)NC(=O)[C@H](CO)NC(=O)[C@H](CCCNC(=N)N)NC(=O)[C@H](CO)NC1=O) [((N-Me)A)-IC+SRS-((tBu)A)-P-(Oic)-I-(Pen)+IP-NH2] . Value?
Result :: 1.4

Query :: Endpoint output: human MASP1 IC50 of [NMeA]ICSRSLP[Oic]I[Pen]IPQ-NH2 (disulfide 3-11; N-terminus assumed; SMILES CC[C@H](C)[C@H](NC(=O)[C@H](C)NC)C(=O)N[C@H]1CSSC(C)(C)[C@@H](C(=O)N[C@H](C(=O)N2CCC[C@H]2C(=O)N[C@@H](CCC(N)=O)C(N)=O)[C@@H](C)CC)NC(=O)[C@H]([C@@H](C)CC)NC(=O)[C@@H]2C[C@@H]3CCCC[C@@H]3N2C(=O)[C@@H]2CCCN2C(=O)[C@H](CC(C)C)NC(=O)[C@H](CO)NC(=O)[C@H](CCCNC(=N)N)NC(=O)[C@H](CO)NC1=O) [((N-Me)A)-IC+SRSLP-(Oic)-I-(Pen)+IPQ-NH2] . Value?
Result :: 3.5

Query :: Endpoint output: human MASP1 IC50 of Ac-G[NMeI]CSRSLPPICIPD-OH (disulfide 3-11; SMILES CC[C@H](C)[C@@H]1NC(=O)[C@@H]2CCCN2C(=O)[C@@H]2CCCN2C(=O)[C@H](CC(C)C)NC(=O)[C@H](CO)NC(=O)[C@H](CCCNC(=N)N)NC(=O)[C@H](CO)NC(=O)[C@@H](NC(=O)[C@H]([C@@H](C)CC)N(C)C(=O)CNC(C)=O)CSSC[C@@H](C(=O)N[C@H](C(=O)N2CCC[C@H]2C(=O)N[C@@H](CC(=O)O)C(=O)O)[C@@H](C)CC)NC1=O) [Ac-G-((N-Me)I)-C+SRSLPPIC+IPD-OH] . Value?
Result :: 2.09

Query :: Endpoint output: human MASP1 IC50 of [Sar]ICSRSLP[Oic]I[Pen]IP-NH2 (disulfide 3-11; also: HCl salt) [((N-Me)G)-IC+SRSLP-(Oic)-I-(Pen)+IP-NH2 (HCl salt)] . Value?
Result :: 2.2

Query :: Endpoint output: human MASP1 IC50 of AICSRS[tBuAla]PPI[NMeC]IPD-OH (disulfide 3-11; N-terminus assumed; SMILES CC[C@H](C)[C@H](NC(=O)[C@H](C)N)C(=O)N[C@H]1CSSC[C@@H](C(=O)N[C@H](C(=O)N2CCC[C@H]2C(=O)N[C@@H](CC(=O)O)C(=O)O)[C@@H](C)CC)N(C)C(=O)[C@H]([C@@H](C)CC)NC(=O)[C@@H]2CCCN2C(=O)[C@@H]2CCCN2C(=O)[C@H](CC(C)(C)C)NC(=O)[C@H](CO)NC(=O)[C@H](CCCNC(=N)N)NC(=O)[C@H](CO)NC1=O) [AIC+SRS-((tBu)A)-PPI-((N-Me)C)+IPD-OH] . Value?
Result :: 2.45

Query :: Endpoint output: human MASP1 IC50 of [Cit]ICSRS[tBuAla]PPI[Pen]IPD-OH (disulfide 3-11; N-terminus assumed; SMILES CC[C@H](C)[C@H](NC(=O)[C@@H](N)CCCNC(N)=O)C(=O)N[C@H]1CSSC(C)(C)[C@@H](C(=O)N[C@H](C(=O)N2CCC[C@H]2C(=O)N[C@@H](CC(=O)O)C(=O)O)[C@@H](C)CC)NC(=O)[C@H]([C@@H](C)CC)NC(=O)[C@@H]2CCCN2C(=O)[C@@H]2CCCN2C(=O)[C@H](CC(C)(C)C)NC(=O)[C@H](CO)NC(=O)[C@H](CCCNC(=N)N)NC(=O)[C@H](CO)NC1=O) [(Cit)-IC+SRS-((tBu)A)-PPI-(Pen)+IPD-OH] . Value?
Result :: 2.2

Query :: Endpoint output: human MASP1 IC50 of AICSRS[Phe(2-Br)]PPI[Pen]IPD-NH2 (disulfide 3-11; N-terminus assumed; SMILES CC[C@H](C)[C@H](NC(=O)[C@H](C)N)C(=O)N[C@H]1CSSC(C)(C)[C@@H](C(=O)N[C@H](C(=O)N2CCC[C@H]2C(=O)N[C@@H](CC(=O)O)C(N)=O)[C@@H](C)CC)NC(=O)[C@H]([C@@H](C)CC)NC(=O)[C@@H]2CCCN2C(=O)[C@@H]2CCCN2C(=O)[C@H](Cc2ccccc2Br)NC(=O)[C@H](CO)NC(=O)[C@H](CCCNC(=N)N)NC(=O)[C@H](CO)NC1=O) [AIC+SRS-((2-Bromo)F)-PPI-(Pen)+IPD-NH2] . Value?
Result :: 2.8
